system: Rattus norvegicus; assay: Maximum plasma drug concentration of compound determined in rat after iv administration at a dose of 10 mg/kg; type: ADME, organism-based; design: dose 10 mg/kg, route intravenous; settings: in vivo
measurementType: Cmax (µg/mL)
State just the number; it will be interpreted in µg/mL.

**Query** Report Cmax for CSCC[C@H](NC(=O)c1ccc(COCc2ccc(-c3ccc(Cl)cc3)o2)cc1-c1ccccc1C)C(=O)[O-].[Li+]
**Result** 1.25

###

test: Tmax of compound determined in dog […] at a dose of 10 mg/kg; type: ADME, organism-based, Canis lupus familiaris; parameters: dose 10 mg/kg, route intravenous; conditions: in vivo
measurementType: Tmax (min)
State just the number; it will be interpreted in min.

**Query** Report Tmax for CSCC[C@H](NC(=O)c1ccc(COCc2ccc(-c3ccc(Cl)cc3)o2)cc1-c1ccccc1C)C(=O)[O-].[Li+]
**Result** 24
